Attribution: ChEMBL document CHEMBL2311326

system: Staphylococcus aureus; experiment: Antimicrobial activity against methicillin-resistant Staphylococcus aureus; format: functional
In this section we review reported MIC values for a set of compounds.
experimental readout: MIC

1) CCOC(=O)[C@H](Cc1c[nH]c2ccccc12)NSc1ccc([N+](=O)[O-])cc1[N+](=O)[O-] ... > 100 µg/mL
2) CCOC(=O)c1ccccc1SN1C(=O)C(=O)c2cccc(Br)c21 ... > 100 µg/mL
3) COC(=O)[C@H](Cc1c[nH]c2ccccc12)NSc1ccc([N+](=O)[O-])cc1[N+](=O)[O-] ... > 100 µg/mL
4) Cc1ccc(SN2C(=O)C(=O)c3ccccc32)cc1 ... > 100 µg/mL
5) Cc1ccc(SN[C@@H](Cc2c[nH]c3ccccc23)C(=O)OC(C)C)cc1 ... > 100 µg/mL
6) COC(=O)[C@H](Cc1c[nH]c2ccccc12)NSc1ccc([N+](=O)[O-])cc1 ... > 100 µg/mL
7) CCOC(=O)c1ccccc1SN1C(=O)C(=O)c2cccc(Cl)c21 ... > 100 µg/mL
8) CCOC(=O)[C@H](Cc1c[nH]c2ccccc12)NSc1ccc(C)cc1 ... > 100 µg/mL
9) COC(=O)CC[C@H](NSc1ccc([N+](=O)[O-])cc1[N+](=O)[O-])C(=O)OC ... > 100 µg/mL
10) CCOC(=O)CC[C@H](NSc1ccc([N+](=O)[O-])cc1[N+](=O)[O-])C(=O)OCC ... > 100 µg/mL
